Measured α-helix content of apo-hTf of individual entries
- Target Of Assay: apo-human transferrin (apo-hTf) (Homo sapiens, UniProt P02787)
- Sequence (P02787 20-698): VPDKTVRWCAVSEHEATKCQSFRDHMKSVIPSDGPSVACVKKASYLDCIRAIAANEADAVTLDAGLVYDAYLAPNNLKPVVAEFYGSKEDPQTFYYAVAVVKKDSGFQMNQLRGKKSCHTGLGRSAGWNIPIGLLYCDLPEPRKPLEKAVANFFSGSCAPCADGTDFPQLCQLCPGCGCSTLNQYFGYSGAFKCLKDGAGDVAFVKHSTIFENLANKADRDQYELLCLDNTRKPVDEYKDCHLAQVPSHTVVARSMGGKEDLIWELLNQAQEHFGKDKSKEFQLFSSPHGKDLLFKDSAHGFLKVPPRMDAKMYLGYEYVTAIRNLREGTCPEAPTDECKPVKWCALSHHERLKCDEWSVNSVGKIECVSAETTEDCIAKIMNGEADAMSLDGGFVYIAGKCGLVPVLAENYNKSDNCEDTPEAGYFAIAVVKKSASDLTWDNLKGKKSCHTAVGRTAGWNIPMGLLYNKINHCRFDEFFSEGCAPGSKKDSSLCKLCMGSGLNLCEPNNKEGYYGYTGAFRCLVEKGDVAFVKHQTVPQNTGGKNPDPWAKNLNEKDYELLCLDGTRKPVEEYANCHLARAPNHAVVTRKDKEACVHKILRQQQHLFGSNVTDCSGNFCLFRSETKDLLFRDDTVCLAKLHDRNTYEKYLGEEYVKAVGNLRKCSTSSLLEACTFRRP
- Procedure Summary: Far-UV circular dichroism titration of apo-hTf, secondary structure content
- Condition Set: compound concentration 2 (M)

{"Compound": "N.N.[Cl][Pt][Cl] [(NH3)2Pt(II)Cl2, cis-diamminedichloroplatinum (II), reference compound]", "Unit": "%", "α-helix content of apo-hTf": 28.1}
{"Compound": "[Cl-].[Cl-].[V+4].c1cc[cH-]c1.c1cc[cH-]c1 [Cp2VCl2]", "Unit": "%", "α-helix content of apo-hTf": 25.8}
{"Compound": "[Cl-].[Cl-].[Mo+4].c1cc[cH-]c1.c1cc[cH-]c1 [Cp2MoCl2]", "Unit": "%", "α-helix content of apo-hTf": 26.5}
{"Compound": "[Cl][Zr+2][Cl].c1cc[cH-]c1.c1cc[cH-]c1 [Cp2ZrCl2]", "Unit": "%", "α-helix content of apo-hTf": 28.6}
{"Compound": "C1CCCC1.C1CCCC1.[Cl][Nb][Cl] [Cp2NbCl2]", "Unit": "%", "α-helix content of apo-hTf": 26.2}
{"Compound": "C1CCCC1.C1CCCC1.[Cl][W][Cl] [Cp2WCl2]", "Unit": "%", "α-helix content of apo-hTf": 27.9}
{"Compound": "[Cl-].[Cl-].[Hf+4].c1cc[cH-]c1.c1cc[cH-]c1 [Cp2HfCl2]", "Unit": "%", "α-helix content of apo-hTf": 29}
{"Compound": "[Cl-].[Cl-].[Ti+4].c1cc[cH-]c1.c1cc[cH-]c1 [Cp2TiCl2, titanocene dichloride]", "Unit": "%", "α-helix content of apo-hTf": 28.6}

###

Measured other secondary structure content of apo-hTf of individual entries
- Target Of Assay: apo-human transferrin (apo-hTf) (Homo sapiens, UniProt P02787)
- Procedure Summary: Far-UV circular dichroism titration of apo-hTf, secondary structure content
- Condition Set: compound concentration 0.4 (M)
Measured Endpoint: other secondary structure content of apo-hTf (%)

{"Compound": "[Cl-].[Cl-].[Mo+4].c1cc[cH-]c1.c1cc[cH-]c1", "Unit": "%", "Quantitative Readout": 19.3}
{"Compound": "[Cl-].[Cl-].[Ti+4].c1cc[cH-]c1.c1cc[cH-]c1 [Cp2TiCl2, titanocene dichloride]", "Unit": "%", "Quantitative Readout": 18.9}
{"Compound": "C1CCCC1.C1CCCC1.[Cl][W][Cl]", "Unit": "%", "Quantitative Readout": 18.3}
{"Compound": "[Cl-].[Cl-].[Hf+4].c1cc[cH-]c1.c1cc[cH-]c1", "Unit": "%", "Quantitative Readout": 19.1}
{"Compound": "[Cl][Zr+2][Cl].c1cc[cH-]c1.c1cc[cH-]c1", "Unit": "%", "Quantitative Readout": 18.9}

###

Measured random coil content of apo-hTf of individual entries
- Target Of Assay: apo-human transferrin (apo-hTf) (Homo sapiens, UniProt P02787)
- Procedure Summary: Far-UV circular dichroism titration of apo-hTf, secondary structure content
- Condition Set: compound concentration 2 (M)

{"Compound": "C1CCCC1.C1CCCC1.[Cl][W][Cl] [Cp2WCl2]", "Unit": "%", "random coil content of apo-hTf": 34.3}
{"Compound": "[Cl-].[Cl-].[Hf+4].c1cc[cH-]c1.c1cc[cH-]c1 [Cp2HfCl2]", "Unit": "%", "random coil content of apo-hTf": 34}
{"Compound": "C1CCCC1.C1CCCC1.[Cl][Nb][Cl] [Cp2NbCl2]", "Unit": "%", "random coil content of apo-hTf": 34.6}
{"Compound": "N.N.[Cl][Pt][Cl] [(NH3)2Pt(II)Cl2, cis-diamminedichloroplatinum (II), reference compound]", "Unit": "%", "random coil content of apo-hTf": 34.1}
{"Compound": "[Cl-].[Cl-].[Ti+4].c1cc[cH-]c1.c1cc[cH-]c1 [Cp2TiCl2, titanocene dichloride]", "Unit": "%", "random coil content of apo-hTf": 34}
{"Compound": "[Cl-].[Cl-].[V+4].c1cc[cH-]c1.c1cc[cH-]c1 [Cp2VCl2]", "Unit": "%", "random coil content of apo-hTf": 34.5}
{"Compound": "[Cl][Zr+2][Cl].c1cc[cH-]c1.c1cc[cH-]c1 [Cp2ZrCl2]", "Unit": "%", "random coil content of apo-hTf": 34}
{"Compound": "[Cl-].[Cl-].[Mo+4].c1cc[cH-]c1.c1cc[cH-]c1 [Cp2MoCl2]", "Unit": "%", "random coil content of apo-hTf": 34.5}
